Target: EPHB2 (UniProt P29323)
Sequence (P29323 whole entry, looked up): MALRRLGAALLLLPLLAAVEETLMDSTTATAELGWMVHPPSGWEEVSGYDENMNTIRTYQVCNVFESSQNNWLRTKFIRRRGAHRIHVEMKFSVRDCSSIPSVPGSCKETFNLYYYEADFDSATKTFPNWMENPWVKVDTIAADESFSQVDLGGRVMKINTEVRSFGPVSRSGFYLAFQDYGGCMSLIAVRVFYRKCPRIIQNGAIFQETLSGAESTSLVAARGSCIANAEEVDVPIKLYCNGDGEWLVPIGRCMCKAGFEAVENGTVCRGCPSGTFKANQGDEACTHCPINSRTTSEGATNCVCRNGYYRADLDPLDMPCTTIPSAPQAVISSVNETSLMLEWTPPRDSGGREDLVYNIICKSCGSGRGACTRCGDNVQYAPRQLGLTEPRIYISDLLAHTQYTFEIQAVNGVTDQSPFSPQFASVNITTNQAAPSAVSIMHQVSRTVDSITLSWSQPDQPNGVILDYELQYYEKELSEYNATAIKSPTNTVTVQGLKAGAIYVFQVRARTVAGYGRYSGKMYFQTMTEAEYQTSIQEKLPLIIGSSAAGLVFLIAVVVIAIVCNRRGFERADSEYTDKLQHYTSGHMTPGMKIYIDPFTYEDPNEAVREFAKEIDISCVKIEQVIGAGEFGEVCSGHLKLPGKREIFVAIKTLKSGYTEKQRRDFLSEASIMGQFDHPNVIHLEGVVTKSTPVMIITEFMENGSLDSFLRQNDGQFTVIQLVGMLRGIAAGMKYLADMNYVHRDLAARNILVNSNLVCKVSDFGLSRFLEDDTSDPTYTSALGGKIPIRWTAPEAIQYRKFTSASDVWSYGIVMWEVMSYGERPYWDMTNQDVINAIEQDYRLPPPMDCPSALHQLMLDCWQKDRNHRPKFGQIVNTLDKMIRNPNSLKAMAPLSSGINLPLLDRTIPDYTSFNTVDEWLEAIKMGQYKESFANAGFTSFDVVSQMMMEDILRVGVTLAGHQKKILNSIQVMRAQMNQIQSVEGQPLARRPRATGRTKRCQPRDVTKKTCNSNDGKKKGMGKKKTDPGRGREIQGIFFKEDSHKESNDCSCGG
Assay: phosphorylation enrichment, bacterial display (enrichment ratio); higher = better substrate or ligand; peptides without Tyr show the background;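 note: 11-residue human phosphosite peptides and single-mutation variants displayed on the E. coli surface, counted by deep sequencing, each peptide's frequency after selection divided by its frequency in the unselected input library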;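 note: frequency after pTyr selection over input frequency; kinase dosed for 20-30% of maximal phosphorylation in three min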
Exercise: state measured phosphorylation enrichment for each of the sequences provided.
Give bare numbers.

// phosphorylation enrichment lookup, key: MIAIRYSHSRR [ACOXL_Y260_T255M]
0.465

// phosphorylation enrichment lookup, key: YSIDYYRVGGH [NTRK2_Y707_T704I]
0.86

// phosphorylation enrichment lookup, key: QDGYSYPSRQM [LDLR_Y847]
0.576

Answer for every listed entry: what is its phosphorylation enrichment? The entries follow.
1. HRGFLYLAIEF [TEK_Y899_Y897F_YF]
2. ALLTKYSRSSM [DSCC1_Y374_H376R]

1: 0.539; 2: 0.535

Answer for every listed entry: what is its phosphorylation enrichment? The entries follow.
1. CFVFFYSFLLK [PTEN_Y178_R173C_YF]
2. RLMLQYDAVVN [SLC25A32_Y152]
3. VNTMLYEKFTF [TEK_Y1108_T1106M_YF]

0.72
0.703
4.34

Answer for every listed entry: what is its phosphorylation enrichment? The entries follow.
1. CEHRGSLYLAI [TEK_Y897_Y897S]
2. GVRLFYRVRES [RB1_Y454_M457R_YF]
3. LFPANYVAPMT [GRAP2_Y324]
4. DKNSSYFADWF [TUBB8_Y340_L345F]
5. YIPFRYPKEFQ [IDS_Y234_H229Y]
6. KTNVSYFGALD [CACNB4_Y103_C104F]
7. LGSNTYPFLLT [SAG_Y120]
8. LGRKLYSIAAP [ABHD12_Y345]

0.585
0.529
1.31
0.507
0.485
0.43
0.655
1.04

* * *

Test system: c-Src
Experiment: phosphorylation enrichment, bacterial display (enrichment ratio); higher = better substrate or ligand; peptides without Tyr show the background
Exercise: state measured phosphorylation enrichment for each of the sequences provided.

A selection of reference data follows.
// phosphorylation enrichment lookup, key: KVKPIYFHTQG [AR_Y916]
0.522

// phosphorylation enrichment lookup, key: PATINYPFEKG [NDUFS8_Y84]
0.674

// phosphorylation enrichment lookup, key: RVLHNYLVWRV [ECEL1_Y400]
0.526

// phosphorylation enrichment lookup, key: KLRMESLSLMH [NCKIPSD_Y660_Y660S]
0.457

// phosphorylation enrichment lookup, key: NTVLGYFIGRI [GARS1_Y408]
0.348

// phosphorylation enrichment lookup, key: CTTIHYSFMCN [TP53_Y234_N235S_YF]
0.544

Answer for every listed entry: what is its phosphorylation enrichment? The entries follow.
1. FADIAYNYRHG [PAH_Y166]
2. GLSDPYVKIHL [SYT2_Y309]
3. GYDHSYYFIAT [ESD_Y262]
4. LEQRPYRRGSE [KCNJ12_Y427_E430G]
5. DFPMGYPSFLA [TBCK_Y153_I151M_YF]
6. TEQDPYNNIVH [MMUT_Y364_R369H]
7. GSIQQYTFKQE [PRG4_Y1271_I1272T_YF]
8. TPTFPYLLPKS [PLD2_Y580_YF]

0.398
0.376
1.57
0.399
0.428
0.515
0.356
0.451

Answer for every listed entry: what is its phosphorylation enrichment? The entries follow.
1. WQQQSYLDYGI [CTNNB1_Y30_S33Y]
2. DTLLEYLENPK [CYCS_Y68_M66L]
3. VQVAFYTVMMN [SPATA17_Y84_M86V_YF]
4. LWQSIYNLEAE [TNNT2_Y251]

[0.743, 0.463, 0.71, 6.57]

Answer for every listed entry: what is its phosphorylation enrichment? The entries follow.
1. PPNSPYIGSSP [KCNT1_Y740]
2. YVKEPYIQSRF [HIPK4_Y175]
3. ALHRPYGCDVE [ABL2_Y80]

0.352
0.329
0.324

Source of measurements: the supplement of paper PMC10065799
